- Test system: HS 578T breast
- assay.name: NCI-60 one-dose screen, 48 h (100 = growth as untreated, 0 = no growth, -100 = all killed)
- settings: 10 µM unless noted
This is part of a sample that, as a whole, favours compounds with a hit. Of some 83,000 tested, about 20% had one in any assay. Activity calls are given as the source filed them. Rule for the calls: active = growth percent below 10; inactive = the rest.
growth values by entry

Here's what some known entries look like.
C/C(=C(/C)C1CC1CCNC1CCC(NC(=O)OC(C)(C)C)CC1)c1ccccc1 (stereo not given) : 84.1% (inactive)
O=C(Nc1ccc(N2CCOCC2)cc1)Nc1ccc2c(ccn2C(=O)c2cccc(F)c2)c1 : 21.7% (inactive)
CC1=C(C)C(=O)C(Nc2cccc(C(F)(F)F)c2)=C(Br)C1=O : 99.4% (inactive)
Clc1ccc2[nH]cc(-c3cncn3CCc3ccc4c(c3)OCO4)c2c1 : 69.7% (inactive)

With those in mind, consider the next compound.
Consider the compound COc1cc(C(=O)c2cc(C(C)=O)c3c(C)cccn23)cc(OC)c1OC and give its measured growth.
90.7% (inactive)

====

- Test system: HOP-62 NSCLC
- assay.name: NCI-60 one-dose screen, 48 h (100 = growth as untreated, 0 = no growth, -100 = all killed)
- settings: 10 µM unless noted
This is part of a sample that, as a whole, favours compounds with a hit. Of some 83,000 tested, about 20% had one in any assay.
The label is TRUE for growth below 60% and FALSE for growth equal to or exceeding 60%.

CC(C)(O)c1cncc(-c2ccc3ncc(C#N)c(N4CCc5cc(F)c(Cl)cc54)c3c2)c1 : TRUE
CCOC(=O)c1ccc(NC2=CC(=O)C(C)=C(C)C2=O)cc1 : FALSE
Cc1ccc(NC2=C(Cl)C(=O)c3nc(C)ccc3C2=O)c(C)c1 : TRUE

Item N#C/C(=C\c1ccc(-c2ccc(Cl)cc2)o1)C(=O)Nc1ncc(Cc2ccc(Br)cc2)s1 : growth beneath 60%, strictly?
TRUE

====

- System: COLO 205 colon
- assay.name: NCI-60 one-dose screen, 48 h (100 = growth as untreated, 0 = no growth, -100 = all killed)
- settings: 10 µM unless noted
This is part of a sample that, as a whole, favours compounds with a hit. Of some 83,000 tested, about 20% had one in any assay.
Returns true if the recorded growth is greater than or equal to 80%, and false otherwise.

Example entries begin here.
CNC(=O)c1cc(Oc2ccc3c(c2)sc2nc(-c4ccc(N(C)C)cc4)cn23)ccn1 : false
CN1CCN(c2ccc(Nc3nc(NCCCNS(=O)(=O)c4ccc(F)cc4)c4sccc4n3)cc2)CC1 : false
COc1ccc(/C(=N\NC(N)=S)c2ccc(Cl)cc2)cc1OC : false
CC1(C)CC[C@]23CC[C@]4(C)[C@H](CC[C@@H]5[C@@]6(C)CC[C@H](NCO)C(C)(C)[C@@H]6CC[C@]54C)[C@H]2[C@H]1OC3 : false

Hello, I need to know if COc1cc(-c2nc(-c3ccccc3)[nH]c2-c2ccnc(NCCCNS(=O)(=O)c3cccc(F)c3)n2)ccc1F has measured growth not below 80%. Thanks!
true

Decide: is the reported value of growth for Cc1ccc(NC2=C(Cl)C(=O)c3nc(C)ccc3C2=O)c(C)c1 equal to or greater than 80%?
true

Kindly determine if growth recorded for c1ccc(-c2cn3c(-c4c[nH]c5ccccc45)csc3n2)cc1 is above or exactly 80%.
true

Threshold query (growth >= 80%) on O=c1c2cc(-c3ccc(F)cc3F)ccc2n(O)c(=O)n1-c1cccc(C(F)(F)F)c1
false

====

- System: 786-0 renal
- assay.name: NCI-60 one-dose screen, 48 h (100 = growth as untreated, 0 = no growth, -100 = all killed)
- settings: 10 µM unless noted
About 83,000 compounds went through this panel and 20% of them were active in at least one assay; those are over-represented in the sample as a whole.
quantity.name: growth (%)
Give just the numeric value; % need not be written.

Examples with answers:
Cc1nc(N)sc1-c1csc(Nc2ccc(C(F)(F)F)cc2)n1 : 38.6
NS(=O)(=O)c1ccc(Nc2nc(Nc3ccccc3)nc(N3N=C(c4ccc(Cl)cc4)CC3c3ccc(Cl)cc3)n2)cc1 (centres undefined) : 65.8
NS(=O)(=O)c1nnc(/N=C/c2c(O)[nH]c3ccccc23)s1 : 98.2
CCCCCC[n+]1ccc(SCC(=O)n2ccc3ccccc32)c2ccccc21 : 102
Clc1cccc(/C=N/Nc2nc(N/N=C/c3cccc(Cl)c3)nc(N3CCCCC3)n2)c1 : 95.2

# input for lookup
Would you mind telling me what growth value was observed for COC(=O)c1cccc(NC2=CC(=O)C(C)=C(C)C2=O)c1 ?
101

====

# growth per record follows
- System: HCT-15 colon
- assay.name: NCI-60 one-dose screen, 48 h (100 = growth as untreated, 0 = no growth, -100 = all killed)
- settings: 10 µM unless noted
This is part of a sample that, as a whole, favours compounds with a hit. Of some 83,000 tested, about 20% had one in any assay. The source made the active and inactive calls. The calls were made as follows: active = growth percent below 10; inactive = the rest.

Examples from the recorded data:
CNc1sc(S(=O)(=O)NC)nc1S(=O)(=O)c1ccc(C)cc1 : 94.2% (inactive)
CNC(=O)c1cc(-c2ccc(NC(=S)Nc3cccc(C(F)(F)F)c3)cc2)nc2cccnc12 : 98.2% (inactive)
Cc1ccccc1Nc1nc(SC(C)C)nc(-c2ccccc2)c1C#N : 58.2% (inactive)

Suppose we examine the compound COc1cc2oc(-c3cccc(NC(=O)c4cccc([N+](=O)[O-])c4)c3)cc(=O)c2c(OC)c1OC ; what growth value has been reported?
56% (inactive)

Please look up its growth: O=C(N/N=C/c1cc2ccccc2nc1Cl)c1cc(-c2nc3ccccc3[nH]2)nc2ccccc12
82.9% (inactive)

====

- Tested on: MALME-3M melanoma
- assay.name: NCI-60 one-dose screen, 48 h (100 = growth as untreated, 0 = no growth, -100 = all killed)
- settings: 10 µM unless noted
About 83,000 compounds went through this panel and 20% of them were active in at least one assay; those are over-represented in the sample as a whole.
Note that class boundaries on growth are zone 1 (below 50%), zone 2 (50% to below 90%), zone 3 (90% or more)

Solved cases below.
O=C1C(SCc2ccccc2)=C(Cl)CN1c1ccc(Cl)cc1 : zone 3
O=C(CCCCCCNC(=O)C(O)(O)C(F)(F)F)Nc1ncc(-c2ccc(Br)cc2)s1 : zone 1
COc1cc(/C=N\NC(=O)c2ccc3nc(-c4ccc(Br)cc4)[nH]c3c2)cc(OC)c1OC : zone 1
Cc1ccc(-c2cc3nc(C(Cl)Cl)nc(-c4ccc(S(=O)(=O)N(C)C)cc4)n3n2)cc1 : zone 3
O=C(CCl)Nc1ccc(NC(=O)c2cc(Cl)ccc2O)c(Cl)c1 : zone 2
COC(=O)c1ccc(NC2=C(Cl)C(=O)c3nc(C)ccc3C2=O)cc1 : zone 2
CC(=O)c1c([Si](C)(C)C)c2cc(C#N)ccn2c1C(=O)c1ccc(Br)cc1 : zone 3
COc1cc(C(=O)c2cc(C(C)=O)c3cccc(C)n23)cc(OC)c1OC : zone 1
C/C(=N\NC(=O)Nc1ccccc1)c1nnn(-c2ccc([N+](=O)[O-])cc2)c1C : zone 3
Cc1ccc2c(n1)C(=O)C(Cl)=C(Nc1cccc(C)c1C)C2=O : zone 1

Please classify: CCN1CCN(c2ccc(NC(=O)Nc3ccc4c(ccn4-c4ccnc(C(=O)NC)c4)c3)cc2C(F)(F)F)CC1
zone 1

Please classify: CC(C)NC(=O)c1cc(-c2ccc(NC(=O)Nc3ccc(F)c(C(F)(F)F)c3)cc2)nc2cccnc12
zone 3

====

- Test system: SK-MEL-2 melanoma
- assay.name: NCI-60 one-dose screen, 48 h (100 = growth as untreated, 0 = no growth, -100 = all killed)
- settings: 10 µM unless noted
Compounds without any hit were thinned out: in the full panel of roughly 83,000, 20% have a hit.
Label met when growth < 90%; otherwise not met.

Illustrative cases are given below, each with its answer.
Nc1cc(C(=O)N/N=C\c2ccc(OC(F)F)c(OC3CCCC3)c2)nn1CC(O)c1ccccc1 (centres undefined) : not met
O=c1c2ccccc2cc2n1CCN=C2c1ccccc1 : not met
Cc1ccc(NC(=O)Nc2nc3ccc([N+](=O)[O-])cc3s2)cc1 : met
CC[C@]12C=CCN3CC[C@]4(C(=C(C(=O)OC)C1)Nc1cc5c(cc14)[C@@H]1[C@H](O5)[C@@H](O)[C@@]4(CC)CC(C(=O)OC)=C5Nc6cc(O)ccc6[C@@]56CCN1C46)C32 (some centres undefined) : met
CC1=C(C)C(=O)C(Nc2ccc(C)c(C)c2)=C(Br)C1=O : not met

Take the compound Cc1ccc2c(n1)C(=O)C(Cl)=C(Nc1ccc(C#N)cc1)C2=O and say whether its growth is less than 90%.
not met

Determine whether this compound shows growth lower than 90% (ties excluded): CNC(=O)c1cc(-n2ccc3cc(NC(=O)Nc4ccc(N5CCN(C)CC5)c(C(F)(F)F)c4)ccc32)ccn1
met

Regarding O=C1/C(=C/C=C/c2ccco2)SC(=S)N1Cc1ccccc1 , kindly confirm whether its growth is beneath 90%.
not met

Field: below-cutoff. Rule: recorded growth strictly less than 90%. Subject: N#Cc1c(-c2cccs2)cc(-c2cnccn2)nc1SCC(=O)N/N=C/c1ccccc1
not met

Given the entry NC1C2CCC1CN(c1cnc(C(=O)Nc3cc(F)cc4cccnc34)cn1)C2 (centres undefined) , would its reported growth be below 90%?
not met

Is growth strictly under 90% for the entry CC[C@]12C=CCN3CC[C@@]4(c5ccc(OC)cc5N(C)[C@H]4[C@@](O)(C(=O)OC)[C@@H]1OC(=O)CCN1CCc4ccccc4C1)[C@@H]32 ?
not met

API: query returns whether the compound falls strictly under 90% in growth. Query: Clc1ccc2[nH]cc(-c3cncn3CCc3ccc4c(c3)OCO4)c2c1
met

hey, is growth for O=C(/C=C/c1cc(Cl)ccc1Cl)Nc1ncc(Cc2ccc(Cl)cc2)s1 lower than 90% or not?
met

Bench note: check whether C/C(=N\NC(=O)/C=C/CC(=O)O)c1nnn(-c2ccc([N+](=O)[O-])cc2)c1C shows growth below 90%
not met

Determine if O=C1[C@@H]2Cc3c([nH]c4ccccc34)[C@H](c3ccc(Br)cc3)N2C(=O)CN1C1CCN(Cc2c(Cl)cccc2Cl)CC1 shows growth strictly lower than 90%.
not met
